ASSAY SYSTEM: Bcl-2-like protein 10 (Homo sapiens) (UniProt Q9HD36)
Sequence (Q9HD36 whole entry, looked up): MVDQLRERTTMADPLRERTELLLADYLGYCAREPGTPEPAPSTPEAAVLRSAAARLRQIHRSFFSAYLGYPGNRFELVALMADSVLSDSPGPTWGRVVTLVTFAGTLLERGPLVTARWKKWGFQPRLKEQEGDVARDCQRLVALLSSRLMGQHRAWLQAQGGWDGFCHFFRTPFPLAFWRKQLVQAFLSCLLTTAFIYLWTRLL
TEST PROTOCOL: TR3 peptide-Bcl-B binding displacers, biochemical primary FP assay, phenotype converters (AID 1240);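 further: 0% = Bcl-B with tracer peptide and DMSO and 100% = tracer peptide lacking Bcl-B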
CONDITION NOTES: GST-Bcl-B / FITC-TR3 peptide fluorescence polarization; stronger effect = higher value; compound at 3.75 mg/L
The whole screen tested about 50,000 compounds, of which about 800 (1.6%) showed an effect of 50% or more. The full list was thinned out, with strong results kept by preference.
ATTRIBUTE MEASURED: displacement (%)
I only need the number, in %, no unit after it.

COMPOUND: O=C(O)c1c(F)c(F)c(F)c(F)c1-c1ccc(Cl)cc1
ASSAY SYSTEM: Bcl-2-like protein 10 (Homo sapiens) (UniProt Q9HD36)
OBSERVED MEASUREMENT: 11.8

COMPOUND: CSc1ccccc1NC(=O)CC1Nc2cc(C)c(C)cc2NC1=O (configuration not stated)
ASSAY SYSTEM: Bcl-2-like protein 10 (Homo sapiens) (UniProt Q9HD36)
OBSERVED MEASUREMENT: -41.6

COMPOUND: COc1ccc(C2CC(O)C(C)C(c3ccc(OC)cc3)N2)cc1 (configuration not stated)
ASSAY SYSTEM: Bcl-2-like protein 10 (Homo sapiens) (UniProt Q9HD36)
OBSERVED MEASUREMENT: 7.8

COMPOUND: O=C1NC(=Nc2ccc(O)cc2)S/C1=C/C=C/c1ccccc1
ASSAY SYSTEM: Bcl-2-like protein 10 (Homo sapiens) (UniProt Q9HD36)
OBSERVED MEASUREMENT: -5.6

COMPOUND: COC(=O)C1=C(C(=O)OC)C2(OC1c1cccc(F)c1)C(=O)c1ccccc1C2=O (configuration not stated)
ASSAY SYSTEM: Bcl-2-like protein 10 (Homo sapiens) (UniProt Q9HD36)
OBSERVED MEASUREMENT: -0.3

COMPOUND: CC(C(=O)O)N1C(=O)/C(=C/c2ccc3c(c2)OCO3)SC1=S (configuration not stated)
ASSAY SYSTEM: Bcl-2-like protein 10 (Homo sapiens) (UniProt Q9HD36)
OBSERVED MEASUREMENT: 9.1

Req: For the compound Cc1ccc(NC(=O)/C=C/C(=O)c2ccccc2)cc1 , what displacement is on record?
Resp: 54.6

Req: Would you mind telling me what displacement value was observed for CN1C(=O)/C(=C/c2ccc3c(c2)OCO3)SC1=S ?
Resp: 80.3

###

ASSAY SYSTEM: Bcl-2-like protein 10 (Homo sapiens)
TEST PROTOCOL: TR3 peptide-Bcl-B binding displacers, biochemical primary FP assay, phenotype converters (AID 1240);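 further: 0% = Bcl-B with tracer peptide and DMSO and 100% = tracer peptide lacking Bcl-B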
CONDITION NOTES: GST-Bcl-B / FITC-TR3 peptide fluorescence polarization; stronger effect = higher value; compound at 3.75 mg/L
About 800 (1.6%) of roughly 50,000 compounds showed an effect of 50% or more. Many of the other results were omitted from the sample, so strong results are more common in it than they were.
ATTRIBUTE MEASURED: displacement (%)
Reply with just the number (in %).

// worked examples, displacement included
COMPOUND: CCOC(=O)c1c(-c2ccccc2)csc1NC(=O)c1ccc(C)cc1
OBSERVED MEASUREMENT: -5.7
//
COMPOUND: COc1c(Cl)cc(C(=O)Nc2cc(-c3nc4cc(Cl)ccc4o3)ccc2C)cc1Cl
OBSERVED MEASUREMENT: 7.7
//
COMPOUND: Cc1ccc(-c2nn(-c3ccccc3)cc2C=O)o1
OBSERVED MEASUREMENT: -0.3
//
COMPOUND: CCc1ccc2oc(-c3ccc(C)c(NC(=O)c4cc(OC)cc(OC)c4)c3)nc2c1
OBSERVED MEASUREMENT: 13.4
//
COMPOUND: Cc1ccc(-c2nc3ccccc3o2)cc1NC(=O)c1cccc(Cl)c1
OBSERVED MEASUREMENT: 17

--- query ---
Req: # get_value(readout= displacement, system= Bcl-2-like protein 10 (Homo sapiens)) for CN(C)/C=C1/C=C(c2ccccc2)OC1=O
Resp: -11.5
